Measured MIC accompanies every entry in the list below.
System: Pseudomonas aeruginosa
Experiment: In vitro antibacterial activity against Pseudomonas aeruginosa (ATCC 27853) without pre-incubation in mouse serum
Format: functional

Recorded MIC, per entry:
CCOC(=O)OCOC(=O)C1=C(S[C@@H]2CCO[C@@H]2CNC(=O)OCOC(=O)C(C)(C)C)[C@H](C)C2[C@@H]([C@@H](C)O)C(=O)N12 (stereo partly drawn) :: > 128 µg/mL
CCOC(=O)OCOC(=O)C1=C(S[C@@H]2CCO[C@@H]2CNC(=O)OC(C)OC(C)=O)[C@H](C)C2[C@@H]([C@@H](C)O)C(=O)N12 (stereo partly drawn) :: > 128 µg/mL

Let us move to another entry and its MIC.
Exercise: For the molecule CCOC(=O)OCOC(=O)C1=C(S[C@@H]2CCO[C@@H]2CNC(=O)OCOC(=O)C(C)C)[C@H](C)C2[C@@H]([C@@H](C)O)C(=O)N12 (stereo partly drawn) , give its measured MIC value.
Key: > 128 µg/mL

----------
System: Escherichia coli
Test: In vitro antibacterial activity expressed as MIC against E. coli(GC 1792) without pre-incubation in mouse serum
Assay type: functional
Listing: MIC of selected compounds

Some solved entries appear below for comparison.
CCOC(=O)OCOC(=O)C1=C(S[C@@H]2CCO[C@@H]2CNC(=O)OC(C)OC(=O)C(C)(C)C)[C@H](C)C2[C@@H]([C@@H](C)O)C(=O)N12 (stereo partly drawn) :: > 128 µg/mL
CCOC(=O)OCOC(=O)C1=C(S[C@@H]2CCO[C@@H]2CNC(=O)OCOC(=O)C(C)(C)C)[C@H](C)C2[C@@H]([C@@H](C)O)C(=O)N12 (stereo partly drawn) :: > 128 µg/mL

Here is the next item to consider.
Exercise: Send back Escherichia coli MIC of C[C@@H](O)[C@H]1C(=O)N2C(C(=O)O)=C(S[C@@H]3CCO[C@@H]3CN)[C@H](C)[C@H]12 only.
Key: < 0.06 µg/mL
